src = ChEMBL document CHEMBL4808184

- assay-notes: in vivo
- conditions-used: dog, 1 mg/kg
metric: Vd at 24 h (L/kg)
Provide only the numeric value, understood in L/kg.

Report Vd at 24 h for C[C@H]1COc2c(N3CC[C@@H](C4(N)CC4)C3)c(F)cc3cc(C(=O)O)c(=O)n1c23 please.
1.91

###

- assay-notes: physchem
Assign MET to entries whose pKa meets or exceeds 5; assign NOT MET to the rest.

Consider the following illustrative entries.
> print(dat)
                                   compound  class.assignment
1  CO[C@@H]1CC2CN(c3c(F)cc4cc(C(=O)O)c(=O)n5c4c3OC[C@@H]5C)C[C@@H]2[C@H](N)C1 (single isomer, unassigned)               MET
2  C[C@H]1COc2c(N3CC4C[C@@H](OC(F)F)C[C@@H](N)[C@H]4C3)c(F)cc3cc(C(=O)O)c(=O)n1c23 (single isomer, unassigned)               MET
3  Cc1c(N2CCC(C3(N)CC3)C2)c(F)cc2c(-c3cc(O)no3)cc(=O)n(C3CC3)c12 (configuration not stated)           NOT MET

Check this compound for pKa at or above 5: Cc1c(N2CC3CC3(N)C2)c(F)cc2c(CN)cc(=O)n(C3CC3)c12 (configuration not stated)
MET
